Assay: physchem
Format: physicochemical
Conditions: C18 column, pH 7.4, ACN gradient
Task for the reader: assign each of the following compounds its reported CHIC18.

get_value(item= CC1CCC(C(C)C)C(OC(=O)CCCN2CCN(c3cc4c(cc3F)c(=O)c(C(=O)O)cn4C3CC3)CC2)C1 (stereo not shown) , readout=CHIC18) returns 132.45

get_value(item= Cc1ccc(C(C)C)c(OC(=O)CN2CCN(c3cc4c(cc3F)c(=O)c(C(=O)O)cn4C3CC3)CC2)c1 , readout=CHIC18) returns 111.26

get_value(item= CC1CCC(C(C)C)C(OCC(=O)N2CCN(c3cc4c(cc3F)c(=O)c(C(=O)O)cn4C3CC3)CC2)C1 (stereo not shown) , readout=CHIC18) returns 112.24

get_value(item= CC1CCC(C(C)C)C(OC(=O)CN2CCN(c3cc4c(cc3F)c(=O)c(C(=O)O)cn4C3CC3)CC2)C1 (stereo not shown) , readout=CHIC18) returns 127.44

* * *

Assay: physchem
Assay type: physicochemical
Details: pH 7.4
Task for the reader: assign each of the following compounds its reported chromatographic logD.
// no unit, no text: just the number

get_value(item= Cc1ccc(C(C)C)c(OC(=O)CCCCCN2CCN(c3cc4c(cc3F)c(=O)c(C(=O)O)cn4C3CC3)CC2)c1 , readout=chromatographic logD) returns 4.91

get_value(item= Cc1ccc(C(C)C)c(OC(=O)CN2CCN(c3cc4c(cc3F)c(=O)c(C(=O)O)cn4C3CC3)CC2)c1 , readout=chromatographic logD) returns 4.37

get_value(item= CC1CCC(C(C)C)C(OC(=O)CN2CCN(c3cc4c(cc3F)c(=O)c(C(=O)O)cn4C3CC3)CC2)C1 (stereo not shown) , readout=chromatographic logD) returns 5.22

get_value(item= Cc1ccc(C(C)C)c(OC(=O)CCN2CCN(c3cc4c(cc3F)c(=O)c(C(=O)O)cn4C3CC3)CC2)c1 , readout=chromatographic logD) returns 4.52

get_value(item= CC1CCC(C(C)C)C(OC(=O)CCCN2CCN(c3cc4c(cc3F)c(=O)c(C(=O)O)cn4C3CC3)CC2)C1 (stereo not shown) , readout=chromatographic logD) returns 5.49

get_value(item= Cc1ccc(C(C)C)c(OC(=O)CCCCCOC(=O)c2cn(C3CC3)c3cc(N4CCN(CCCCCC(=O)Oc5cc(C)ccc5C(C)C)CC4)c(F)cc3c2=O)c1 , readout=chromatographic logD) returns 6.14

get_value(item= CC1CCC(C(C)C)C(OC(=O)CCCCN2CCN(c3cc4c(cc3F)c(=O)c(C(=O)O)cn4C3CC3)CC2)C1 (stereo not shown) , readout=chromatographic logD) returns 5.61

* * *

Assay: physchem
Format: physicochemical
Conditions: pH 7.4
endpoint: chromatographic logD
// no unit, no text: just the number

get_value(item= CC(C)[C@@H]1CC[C@@H](C)C[C@H]1OC(=O)CCCCCN1CCN(c2cc3c(cc2F)c(=O)c(C(=O)O)cn3C2CC2)CC1 , readout=chromatographic logD) returns 5.86

get_value(item= CC1CCC(C(C)C)C(OC(=O)CCN2CCN(c3cc4c(cc3F)c(=O)c(C(=O)O)cn4C3CC3)CC2)C1 (stereo not drawn) , readout=chromatographic logD) returns 5.36

get_value(item= CC1CCC(C(C)C)C(OCC(=O)N2CCN(c3cc4c(cc3F)c(=O)c(C(=O)O)cn4C3CC3)CC2)C1 (stereo not drawn) , readout=chromatographic logD) returns 4.43
